Test: Multiple-dose pharmacokinetics, plasma LNG concentrations on treatment day 55 (±1)
Type: in vivo, human
Details: female, human, plasma, po, 0.135 mg per day, 0.135 mg per day oral over 55 ± 1 consecutive days, subgroup BMI < 30 kg/m2; read-out: Cmax, ss, Geometric mean
reported-endpoint: Cmax

[Q] Any idea what Cmax was measured for C#C[C@]1(O)CC[C@H]2[C@@H]3CCC4=CC(=O)CC[C@@H]4[C@H]3CC[C@@]21CC (racemic) ?
[A] 2.14 ng/mL

* * *

Assay: Multiple-dose pharmacokinetics, plasma LNG concentrations on treatment day 55 (±1)
Format: in vivo, human
Details: female, human, plasma, po, 0.135 mg per day, 0.135 mg per day oral over 55 ± 1 consecutive days, entire treatment group; read-out: Cmax, ss, Geometric Mean
reported-endpoint: Cmax (ng/mL)
Only the number, expressed in ng/mL, is required.

[Q] Any idea what its Cmax is? The compound is C#C[C@]1(O)CC[C@H]2[C@@H]3CCC4=CC(=O)CC[C@@H]4[C@H]3CC[C@@]21CC (racemic)
[A] 1.92
